target: human GPR39 receptor (Homo sapiens); construct: PC3 Cells, Expressing the Endogenous Human GPR39 Receptor; endogenous in cells; experiment: Intracellular calcium response (FLIPR, Calcium-6) in PC3 cells, antagonism of agonist C3 (TC-G 1008) at EC90; settings: functional pKi (-Log10Ki) by modified Cheng-Prusoff from IC50; PC3 cells endogenously expressing human GPR39; 30 μM ZnCl2; agonist C3 (TC-G 1008) at EC90 1.5 μM; read-out: fpKi activity
pKi: −log10 of the molar value.
Known pKi of a selection of compounds

Field: example entries. Status: answers known.
compound: Cc1nnc(-c2ccc(C(=O)N3CCC(C)(F)CC3)c(-c3ccn(C(C)C)n3)c2)[nH]1
meas-value: ≥ 7.30
--
compound: Cc1cccc(C2CN(C)CCN2C(=O)c2ccc(NC(=O)C3CC3)cc2N2CCCC2)c1 (racemic)
meas-value: 6.60 to 7.20
--
compound: CC(C)n1ccc(-c2cc(NC(=O)C3CC3)ccc2C(=O)N2CCC(F)(F)CC2)n1
meas-value: ≥ 7.30
--
compound: Cc1nnc(-c2ccc(C(=O)N3CCN(C)CC3c3ccccc3)c(N3CCC(C(C)C)C3)c2)[nH]1 (single isomer, unassigned) [Example 125a]
meas-value: 6.00 to 6.50
--
compound: Cc1nnc(-c2ccc(C(=O)N3CC4(C3)CC(F)(F)C4)c(-c3ccn(C(C)C)n3)c2)[nH]1
meas-value: ≥ 7.30
--
compound: Cc1nnc(-c2ccc(C(=O)N3CCC(F)(F)CC3)c(-c3nccc(C(F)(F)F)n3)c2)[nH]1
meas-value: ≥ 7.30
--
compound: Cc1nnc(-c2ccc(C(=O)N3CCC(F)(F)CC3)c(-c3ccn(C(C)C4CC4)n3)c2)[nH]1 (single isomer, unassigned) [Example 57a]
meas-value: ≥ 7.30
--
compound: O=C(Nc1ccc(C(=O)N2CCCC2c2ccccc2)c(N2CCCC2)c1)C1CC1 (centres unmarked)
meas-value: 5.20 to 5.90

Please find the next compound below.
Query block: Supply measured pKi of "COC1(C)CCN(C(=O)c2ccc(-c3nnc(C)[nH]3)cc2-c2ccn(C(C)(C)C)n2)CC1" in your reply.
Result block: ≥ 7.30

====

molecular target: human GPR39 receptor (Homo sapiens, UniProt O43194); construct: PC3 Cells, Expressing the Endogenous Human GPR39 Receptor; endogenous in cells; host or cells: PC3 (human prostate adenocarcinoma) cells; assay: Intracellular calcium response (FLIPR, Calcium-6) in PC3 cells, antagonism of agonist C3 (TC-G 1008) at EC90; format: cell-based; conditions: functional pKi (-Log10Ki) by modified Cheng-Prusoff from IC50; PC3 cells endogenously expressing human GPR39; 30 μM ZnCl2; agonist C3 (TC-G 1008) at EC90 1.5 μM; read-out: fpKi activity
readout-kind: Ki

Field: example entries. Status: answers known.
compound: CC(C)n1ccc(-c2cc(NC(=O)C3CC3)ccc2C(=O)N2CCN(C)CC2c2ccccc2)n1 (racemic)
target-desc: human GPR39 receptor (Homo sapiens, UniProt O43194)
meas-value: 316 to 1000 nM
--
compound: Cc1nnc(-c2ccc(C(=O)N3CCC4(CCO4)CC3)c(-c3ccn(C(C)C)n3)c2)[nH]1
target-desc: human GPR39 receptor (Homo sapiens, UniProt O43194)
meas-value: ≤ 50.1 nM
--
compound: O=C(Nc1ccc(C(=O)N2CCC(F)(F)CC2)c(-n2ccc(C(F)(F)F)n2)c1)C1CC1
target-desc: human GPR39 receptor (Homo sapiens, UniProt O43194)
meas-value: ≤ 50.1 nM
--
compound: O=C(Nc1ccc(C(=O)N2CC3CC(C3)C2)c(N2CCCC2)c1)C1CC1
target-desc: human GPR39 receptor (Homo sapiens, UniProt O43194)
meas-value: 316 to 1000 nM
--
compound: O=C(Nc1ccc(C(=O)N2CCS(=O)(=O)CC2)c(-c2cnc(C(F)(F)F)s2)c1)C1CC1
target-desc: human GPR39 receptor (Homo sapiens, UniProt O43194)
meas-value: 1260 to 6310 nM
--
compound: Cc1nnc(-c2ccc(C(=O)N3CCC(F)(F)CC3)c(-c3ccn(C(C)C)n3)c2)[nH]1
target-desc: human GPR39 receptor (Homo sapiens, UniProt O43194)
meas-value: ≤ 50.1 nM

Please find the next compound below.
Query block: Supply measured Ki of CN1CCN(C(=O)c2ccc(NC(=O)C3CC3)cc2N2CCCC2)C(c2ccccc2C(F)(F)F)C1 (racemic) in your reply.
Result block: 316 to 1000 nM

====

Known pKi of a selection of molecules
Target: human GPR39 receptor (Homo sapiens, UniProt O43194)
Construct: PC3 Cells, Expressing the Endogenous Human GPR39 Receptor; endogenous in cells
Sequence (O43194 1-453): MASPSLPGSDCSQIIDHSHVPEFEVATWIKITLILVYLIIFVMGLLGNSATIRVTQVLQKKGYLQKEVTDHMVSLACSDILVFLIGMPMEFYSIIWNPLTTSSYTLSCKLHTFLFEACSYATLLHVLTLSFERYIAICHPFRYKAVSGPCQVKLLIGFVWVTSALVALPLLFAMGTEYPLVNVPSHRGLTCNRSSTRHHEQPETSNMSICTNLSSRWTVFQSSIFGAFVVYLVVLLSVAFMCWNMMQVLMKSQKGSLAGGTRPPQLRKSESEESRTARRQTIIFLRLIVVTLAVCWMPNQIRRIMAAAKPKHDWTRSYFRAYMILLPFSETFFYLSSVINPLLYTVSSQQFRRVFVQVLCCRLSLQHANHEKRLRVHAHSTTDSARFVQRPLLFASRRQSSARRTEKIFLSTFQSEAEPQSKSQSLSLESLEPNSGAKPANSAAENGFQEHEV
Test: Intracellular calcium response (FLIPR, Calcium-6) in PC3 cells, antagonism of agonist C3 (TC-G 1008) at EC90
Details: functional pKi (-Log10Ki) by modified Cheng-Prusoff from IC50; PC3 cells endogenously expressing human GPR39; 30 μM ZnCl2; agonist C3 (TC-G 1008) at EC90 1.5 μM; read-out: fpKi activity
pKi: −log10 of the molar value.

Field: example entries. Status: answers known.
molecule: COC1CCN(C(=O)c2ccc(-c3nnc(C)[nH]3)cc2-c2ccn(C(C)C)n2)CC1
target-desc: human GPR39 receptor (Homo sapiens, UniProt O43194)
pKi: ≥ 7.30
--
molecule: Cc1cc(Nc2ccc(C(=O)N3CCN(C)CC3c3ccccc3)c(N3CCCC3)c2)on1 (racemic)
target-desc: human GPR39 receptor (Homo sapiens, UniProt O43194)
pKi: 5.20 to 5.90
--
molecule: O=C(Nc1ccc(C(=O)N2CCC(c3ccccc3)C2)c(N2CCCC2)c1)C1CC1 (centres unmarked)
target-desc: human GPR39 receptor (Homo sapiens, UniProt O43194)
pKi: 5.20 to 5.90

Query block: Supply measured pKi of "Cc1nnc(-c2ccc(C(=O)N3CCC(C#N)CC3)c(-c3ccn(C(C)C)n3)c2)[nH]1" in your reply.
Result block: 6.00 to 6.50

Query block: Supply measured pKi of "Cc1cc(C(=O)N2CCS(=O)(=O)CC2)c(N2CCCC2)cc1NC(=O)C1CC1" in your reply.
Result block: < 5.20

Query block: Supply measured pKi of "Cc1nnc(-c2ccc(C(=O)N3CCC(C(F)(F)F)CC3)c(-n3ccc(C4CC4)n3)c2)[nH]1" in your reply.
Result block: ≥ 7.30

Query block: Supply measured pKi of "CN(C1CCN(C(=O)c2ccc(NC(=O)C3CC3)cc2N2CCCC2)CC1)S(C)(=O)=O" in your reply.
Result block: 5.20 to 5.90

Query block: Supply measured pKi of "O=C(Nc1ccc(C(=O)N2CCS(=O)(=O)CC2)c(-c2ccc(C(F)(F)F)s2)c1)C1CC1" in your reply.
Result block: 6.00 to 6.50

Query block: Supply measured pKi of "N#Cc1ccc(-c2cc(NC(=O)C3CC3)ccc2C(=O)N2CCS(=O)(=O)CC2)s1" in your reply.
Result block: 5.20 to 5.90

Query block: Supply measured pKi of "O=C(Nc1ccc(C(=O)N2C3CCC2COC3)c(N2CCCC2)c1)C1CC1" in your reply.
Result block: 5.20 to 5.90

Query block: Supply measured pKi of Cc1nnc(Nc2ccc(C(=O)N3CCN(C)CC3c3ccccc3)c(N3CCCC3)c2)s1 (centres unmarked) in your reply.
Result block: 5.20 to 5.90

====

biological target: human GPR39 receptor (Homo sapiens, UniProt O43194); construct: PC3 Cells, Expressing the Endogenous Human GPR39 Receptor; endogenous in cells; experiment: Intracellular calcium response (FLIPR, Calcium-6) in PC3 cells, antagonism of agonist C3 (TC-G 1008) at EC90; settings: functional pKi (-Log10Ki) by modified Cheng-Prusoff from IC50; PC3 cells endogenously expressing human GPR39; 30 μM ZnCl2; agonist C3 (TC-G 1008) at EC90 1.5 μM; read-out: fpKi activity
pKi: −log10 of the molar value. Structures can show the parent of a compound that is named as a salt.
readout-kind: pKi

Field: example entries. Status: answers known.
compound: Cc1cc(C(F)(F)F)nc(-c2cc(-c3nnc(C)[nH]3)ccc2C(=O)N2CCC(C(F)(F)F)CC2)n1
target-desc: human GPR39 receptor (Homo sapiens, UniProt O43194)
meas-value: ≥ 7.30

compound: CCn1ccc(-c2cc(-c3nnc(C)[nH]3)ccc2C(=O)N2CCC(F)(F)CC2)n1
target-desc: human GPR39 receptor (Homo sapiens, UniProt O43194)
meas-value: ≥ 7.30

compound: Cc1nnc(-c2ccc(C(=O)N3CCC(F)(F)CC3)c(-c3ccn(C4CCC4)n3)c2)[nH]1
target-desc: human GPR39 receptor (Homo sapiens, UniProt O43194)
meas-value: ≥ 7.30

compound: N#Cc1ccn(-c2cc(NC(=O)C3CC3)ccc2C(=O)N2CCS(=O)(=O)CC2)n1
target-desc: human GPR39 receptor (Homo sapiens, UniProt O43194)
meas-value: 5.20 to 5.90

compound: CC(C)c1cc(-c2ccc(C(=O)N3CCC(F)(F)CC3)c(-c3ccn(C(C)C)n3)c2)[nH]n1
target-desc: human GPR39 receptor (Homo sapiens, UniProt O43194)
meas-value: 5.20 to 5.90

compound: Cc1cc(Cl)cc(C2CN(C)CCN2C(=O)c2ccc(NC(=O)C3CC3)cc2N2CCCC2)c1 (single isomer, unassigned) [Example 110b, hydrochloride]
target-desc: human GPR39 receptor (Homo sapiens, UniProt O43194)
meas-value: 5.20 to 5.90

compound: Cc1nnc(-c2ccc(C(=O)N3CCC(C)CC3)c(-c3ccn(C(C)C)n3)c2)[nH]1
target-desc: human GPR39 receptor (Homo sapiens, UniProt O43194)
meas-value: ≥ 7.30

compound: Cc1nnc(-c2ccc(C(=O)N3CCC(OC(F)(F)F)CC3)c(-c3ccn(C(C)(C)C)n3)c2)[nH]1
target-desc: human GPR39 receptor (Homo sapiens, UniProt O43194)
meas-value: ≥ 7.30

compound: Cc1nnc(-c2ccc(C(=O)N3CCC(F)(F)CC3)c(-n3ccc(C(C)(C)C)n3)c2)[nH]1
target-desc: human GPR39 receptor (Homo sapiens, UniProt O43194)
meas-value: ≥ 7.30

compound: Cc1nnc(-c2ccc(C(=O)N3CCC(F)(F)CC3)c(-c3nc(C(F)(F)F)cs3)c2)[nH]1
target-desc: human GPR39 receptor (Homo sapiens, UniProt O43194)
meas-value: ≥ 7.30

Please find the next compound below.
Query block: Lab note: human GPR39 receptor (Homo sapiens, UniProt O43194) assay, enter pKi for "CS(=O)(=O)NC1CCN(C(=O)c2ccc(NC(=O)C3CC3)cc2N2CCCC2)CC1" here
Result block: < 5.20
